B1: DVL3 (parent)
chain: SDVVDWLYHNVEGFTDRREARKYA

- Variants of: B1
- protocol: protein stability index of a GFP-peptide fusion (GPS, HEK-293T) (PSI 1-6); higher = more stable;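 further: lentivirally expressed fusions sorted by FACS into six bins by GFP to DsRed ratio, PSI derived from sequencing read proportions per bin multiplied by bin number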
- run_parameters: c terminus: a fixed tail appended
Listing of entries alongside the reported protein stability index.
Lab note: write the figure by itself, no unit.

N10T : 3.33
D2E : 3.01

GET /values?readout=protein stability index&item= Y23W 2.75

Further, for Y8W ? 2.31

Further, for N10E ? 3.69

Further, for R18D ? 3.99

Further, for A20I ? 1.98

Further, for V3R ? 3.95

Further, for E19F ? 2.34

Further, for E19N ? 2.86

Further, for V11M ? 2.58

Further, for V4M ? 3.76

Further, for Y23G ? 4.05

Further, for A24R ? 3.11

Further, for H9R ? 2.8

Further, for W6H ? 4.21

Further, for R17S ? 3.9

Further, for F14W ? 3.18

Further, for D5V ? 1.19

Further, for R18G ? 2.38

Further, for S1K ? 2

Further, for S1L ? 3.51
